# System: Mus musculus
# assay-overview: Intravenous hypnotic dose that caused a loss of righting reflex for a minimum period of 30s in 50% of treated mice determined by probit analysis.
# Type: functional
Record form. Attribute: HD50. Fill in for each entry.
Give bare numbers, in µM/kg.

Some solved entries appear below for comparison.
[[record]]
molecule = "COCCN(CCOC)C(CC(=O)OC)C(=O)Oc1c(OC)cccc1OC (stereo not given)"
quantitative_result = 48

[[record]]
molecule = "COC(=O)CC(C(=O)Oc1c(OC)cc(C)cc1OC)N1CCCC1 (stereo not given)"
quantitative_result = 52

[[record]]
molecule = "COC(=O)CC(C(=O)Oc1c(OC)cccc1OC)N1CCCC1 (stereo not given)"
quantitative_result = 77


Give one value of HD50 per listed molecule.
1. CC(C)c1cccc(C(C)C)c1O [PROPOFOL]
2. CC[C@H](C(=O)Oc1c(OC)cc(C)cc1OC)N(CCOC)CCOC [ORG-24447]

Response line:
68
21.7

Give one value of HD50 per listed molecule.
1. COc1cc(C)cc(OC)c1OC(=O)C(CCS(C)(=O)=O)N1C=CCCC1 (stereo not given)
2. COc1cc(C)cc(OC)c1OC(=O)C(CC(=O)N1CCCC1)N1CCCC1 (stereo not given)
3. COc1cccc(OC)c1OC(=O)C(CC(=O)N1CCCC1)N1CCCC1 (stereo not given)
4. COc1cccc(OC)c1OC(=O)C(CCSC)N1CCCCCCC1 (stereo not given)
5. COc1cc(C)cc(OC)c1OC(=O)C(CC[S+](C)[O-])N1CCOCC1 (stereo not given)

Response line:
1: 39.3; 2: 81; 3: 102; 4: 35; 5: 299

Give one value of HD50 per listed molecule.
1. COc1cccc(OC)c1OC(=O)C(CCS(C)(=O)=O)N1CCOCC1 (stereo not given)
2. COC(=O)CC(C(=O)Oc1c(OC)cc(C)cc1OC)N1CCCCC1 (stereo not given)
3. COc1cc(C)cc(OC)c1OC(=O)C(CC[S+](C)[O-])N1CCCC1 (stereo not given)
4. CCN(CC)C(=O)CC(C(=O)Oc1c(OC)cccc1OC)N1CCOCC1 (stereo not given)
5. COc1cccc(OC)c1OC(=O)C(CC(=O)N1CCCC1)N1CCCCCC1 (stereo not given)

Response line:
99
48
73
117
34

Give one value of HD50 per listed molecule.
1. COC(=O)CC(C(=O)Oc1c(OC)cc(C)cc1OC)N1CCOCC1 (stereo not given)
2. COCCN(CCOC)C(CC(=O)OC)C(=O)Oc1c(OC)cc(C)cc1OC (stereo not given)
3. COCCN(CCOC)C(CCSC)C(=O)Oc1c(OC)cc(C)cc1OC (stereo not given)
4. COc1cc(C)cc(OC)c1OC(=O)C(CCSC)N1CCOCC1 (stereo not given)

Response line:
1. 46
2. 48
3. 22.6
4. 34.8

###

Record form. Attribute: IC50. Fill in for each entry.
# test-system: GABA-A receptor; anion channel
# assay-overview: In vitro inhibition of [35S]TBPS binding to GABA-A receptor of rat whole brain membranes
Numbers only, in µM.

[[record]]
molecule = "COC(=O)CC(C(=O)Oc1c(OC)cccc1OC)N1CCCCCC1 (stereo not drawn)"
test_system = "GABA-A receptor; anion channel"
endpoint_label = "IC50"
quantitative_result = 4.2


Give one value of IC50 per listed molecule.
1. COC(=O)CC(C(=O)Oc1c(OC)cc(C)cc1OC)N1CCCCC1 (stereo not drawn)
2. COC(=O)CC(C(=O)Oc1c(OC)cccc1OC)N1CCCCC1 (stereo not drawn)
3. COc1cc(C)cc(OC)c1OC(=O)C(CCSC)N1CCCC1 (stereo not drawn)
4. COCCN(CCOC)C(CCSC)C(=O)Oc1c(OC)cc(C)cc1OC (stereo not drawn)
5. COc1cccc(OC)c1OC(=O)C(CCSC)N1CCCCCC1 (stereo not drawn)
6. COc1cc(C)cc(OC)c1OC(=O)C(CCS(C)(=O)=O)N1C=CCCC1 (stereo not drawn)

Response line:
1: 14.7; 2: 11.7; 3: 2.7; 4: 6.9; 5: 9.7; 6: 6.2

Prompt line: I would be grateful if you could share the reported IC50 for COc1cccc(OC)c1OC(=O)C(CCSC)N1CCCCC1 (stereo not drawn) .
Response line: 4
